# MEASURED TARGET: Serine/threonine-protein kinase MRCK beta (Homo sapiens)
# MEASUREMENT SETUP: at 10 µM
Listing of recorded residual activity by entry.
REPORTED ENDPOINT: residual activity (%)

1. O=c1cc(N2CCOCC2)oc2c(-c3ccccc3)cccc12: 65
2. Fc1ccc(-c2nc3n(c2-c2ccncc2)CCS3)cc1: 98
3. Cn1sc(=O)n(Cc2ccccc2)c1=O: 81
4. O=c1cc(N2CCNCC2)oc2c(-c3ccccc3)cccc12: 76
5. O=C(CCCc1ccc(-c2ccccc2F)cc1)Nc1ccc(O)cc1: 105
6. O=C(Nc1nc2ccccc2n1CCN1CCOCC1)c1cccc([N+](=O)[O-])c1: 83
7. NC(=O)c1ccc(-c2nc(-c3ccc4c(c3)OCCO4)c(-c3ccccn3)[nH]2)cc1: 92
8. CC(C)[C@H](CO)Nc1nc(Nc2cc(N)cc(Cl)c2)c2ncn(C(C)C)c2n1: 90
9. CCCC(=O)Oc1ccc2[nH]c(C(=O)c3cc4ccccc4[nH]3)cc2c1: 79
10. O=C1NC(=O)c2c1c1c3ccccc3[nH]c1n1cncc21: 79
11. COc1ccc2c(c1)c(C1=C(c3c[nH]c4ccccc34)C(=O)NC1=O)cn2CCCN(C)C: 41

---

Listing of recorded residual activity by entry.
# MEASURED TARGET: Protein kinase C alpha type (Homo sapiens) (UniProt P17252)
# MEASUREMENT SETUP: at 1 µM
REPORTED ENDPOINT: residual activity (%)

1) CCCC(=O)Oc1ccc2[nH]c(C(=O)c3cc4ccccc4[nH]3)cc2c1: 106
2) COc1cc2nccc(Oc3ccc(NC(=S)NC(=O)c4ccccc4C)cc3)c2cc1OC: 99
3) NC(=O)Nc1sc(-c2ccc(F)cc2)cc1C(N)=O: 91
4) CC(C)c1nn(-c2c(Cl)cccc2Cl)c2nc(Cc3ccc(OCCO)cc3)[nH]c(=O)c12: 105
5) O=C1NC(=O)C(c2c[nH]c3ccccc23)=C1c1c[nH]c2ccccc12: 26
6) Cn1sc(=O)n(Cc2ccccc2)c1=O: 85
7) O=C(CCCc1ccc(-c2ccccc2F)cc1)Nc1ccc(O)cc1: 106
8) COc1ccc(Cl)cc1NC(=O)Nc1cc(C)nc2ccccc12: 98
9) Cn1c2ccccc2c2c3c(c4c5ccccc5n(CCC#N)c4c21)CNC3=O: 1
10) O=C(O)/C=C/c1cc(Br)c(Br)c(Br)c1Br: 105
11) Nc1nc(Nc2ccc(S(N)(=O)=O)cc2)nn1C(=O)c1c(F)cccc1F: 63
12) NC(=O)c1ccc(-c2nc(-c3ccc4c(c3)OCCO4)c(-c3ccccn3)[nH]2)cc1: 90
13) O=C(Nc1nc2ccccc2n1CCN1CCOCC1)c1cccc([N+](=O)[O-])c1: 104

---

# MEASURED TARGET: CDK3/cyclin E (Homo sapiens) (UniProt P24864+O96020+Q00526)
# MEASUREMENT SETUP: at 10 µM
REPORTED ENDPOINT: residual activity (%)

1) Cc1cc(C)c(/C=C2\C(=O)Nc3ccccc32)[nH]1: 69
2) O=C1Cc2c([nH]c3ccc(Br)cc23)-c2ccccc2N1: 9
3) CCN1/C(=C/C(C)=O)Sc2ccc(OC)cc21: 80
4) O=c1cc(N2CCNCC2)oc2c(-c3ccccc3)cccc12: 84
5) Nc1nc(Nc2ccc(S(N)(=O)=O)cc2)nn1C(=O)c1c(F)cccc1F: 0
6) O=C(NC(NC(=S)Nc1ccc(F)c([N+](=O)[O-])c1)C(Cl)(Cl)Cl)C(c1ccccc1)c1ccccc1 (centres undefined): 93
7) CCCCc1c(-c2ccc(O)cc2)[nH]c2nccnc12: 6
8) Nc1n[nH]c2nc3ccccc3nc12: 28
9) NC(=O)Nc1sc(-c2ccc(F)cc2)cc1C(N)=O: 43
10) CC(C)(C)n1nc(Cc2cccc3ccccc23)c2c(N)ncnc21: 63
11) Nc1ncnc2[nH]nc(Nc3ccc(F)cc3)c12: 39
12) Oc1cccc(-c2nc(N3CCOCC3)c3oc4ncccc4c3n2)c1: 97
13) CC(C)c1nn(-c2c(Cl)cccc2Cl)c2nc(Cc3ccc(OCCO)cc3)[nH]c(=O)c12: -1
14) COc1ccc2c(c1)c(C1=C(c3c[nH]c4ccccc34)C(=O)NC1=O)cn2CCCN(C)C: 75
15) CCCCc1c(-c2ccc(OC)cc2)[nH]c2nccnc12: 32
16) O=C1NC(=O)C(c2c[nH]c3ccccc23)=C1c1c[nH]c2ccccc12: 29
17) CC(C)(C)c1nc2c3ccc(F)cc3c3c(=O)[nH]ccc3c2[nH]1: 54
18) O=C1Cc2c([nH]c3ccc([N+](=O)[O-])cc23)-c2ccccc2N1: 6
19) COc1ccc(Cl)cc1NC(=O)Nc1cc(C)nc2ccccc12: 91
20) O=C1NC(=O)C(c2cn(CCCn3ccnc3)c3ccccc23)=C1Nc1ccccc1: 13
21) CSc1nc(-c2ccc(F)cc2)c(-c2ccnc(NC(C)c3ccccc3)c2)[nH]1 (centres undefined): 84
22) O=C1Nc2ccc(Cl)cc2/C1=C/c1cc(Cl)c(O)c(Cl)c1: 73
23) O=C(O)/C=C/c1cc(Br)c(Br)c(Br)c1Br: 87
24) O=C(c1cc2cc(O)ccc2[nH]1)c1cc2cc(O)ccc2[nH]1: 8
